- SYSTEM: human GABA A receptor α5β3γ2 (Homo sapiens, UniProt P18507+P31644)
- Construct: expressed in transfected cells; host or cells: HEK293 cells, transiently transfected; membranes prepared from them
- METHOD: [3H]flumazenil competition binding, HEK293 cells expressing human GABA A α5β3γ2 receptors
- TEST SETTINGS: human α5β3γ2 in HEK293 (transiently transfected), 0.5 nM [3H]flumazenil, mean of two determinations; read-out: Ki[nM] hα5
- Method: Membrane Preparation and Binding Assay The affinity of compounds at GABA A receptor subtypes was measured by competition for [3H]flumazenil (85 Ci/mmol; Roche) binding to HEK293 cells expressing rat (stably transfected) or human (transiently transfected) receptors of composition α1β3γ2, α2β3γ2, α3β3γ2 and α5β3γ2. […]
MEASUREMENT TYPE: Ki (nM)

Examples with their reported Ki follow.
COMPOUND	RESULT UNIT	Ki
COc1ccc2cc(C(=O)c3c(-c4ccccc4)noc3C)oc2c1 [Example 17]	nM	3.5
COc1ccc2oc(C(=O)c3c(-c4ccc(Br)cc4)noc3C)cc2c1 [Example 43]	nM	2.9

(I) COc1cccc2cc(C(=O)c3c(-c4ccccc4)noc3C)oc12 [Example 5]
(II) Cc1onc(-c2ccccc2)c1C(=O)c1cc2cc(Cl)ccc2o1 [Example 19]
Input: Please let me know which one, I or II , has a lower measured Ki value. State your choice using its label.
Output: I

Reference for the values: patent US7388025B2
